Molecular target: T1, N-ter hCCR4-hCCR8 (human)
T1 construct: chimera on Expi293 cells; remaining hCCR8 ranges derived from the stated swapped ranges and the 355-residue length; also called N-terminal region human CCR4-substituted human CCR8
T1 chain: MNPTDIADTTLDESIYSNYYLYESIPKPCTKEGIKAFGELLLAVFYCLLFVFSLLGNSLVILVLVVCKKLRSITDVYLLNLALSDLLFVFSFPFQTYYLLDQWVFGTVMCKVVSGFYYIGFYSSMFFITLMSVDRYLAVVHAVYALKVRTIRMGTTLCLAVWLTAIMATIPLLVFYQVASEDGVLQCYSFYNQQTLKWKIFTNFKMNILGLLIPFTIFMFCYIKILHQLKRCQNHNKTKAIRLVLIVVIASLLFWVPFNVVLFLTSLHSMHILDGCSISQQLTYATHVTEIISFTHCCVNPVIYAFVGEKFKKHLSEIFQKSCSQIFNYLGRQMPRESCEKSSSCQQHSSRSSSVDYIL
Experiment: flow cytometry, transfected Expi293 cells
RECORDED_ENDPOINT: binding result

BINDER | RECORDED_ENDPOINT | REPORTED_RESULT
8F7 (antibody, V domains shown, mouse hybridoma antibody) VH: EVQLVESGGRLVQPKRSLKLSCAASGFTFNPYAMYWIRQAPGQGLEWVARIRSKSNNYATYYADSVKDRFTISRDDSQSMLYLQMNNLKTEDTAMYYCVRGHQGTMDYWGQGTSVTVSS VL: DIVMTQAAPSVPVTPGESVSISCRSSKSLLHSNGNTYLYWFLQRPGQSPQLLTYRMSNLASGVPDRFSGSGSGTAFTLRISRVEAEDVGVYYCMQHLEYPFTFGGGTKLEIKR | binding result | no binding
10A11 (antibody, V domains shown, mouse hybridoma antibody; also called m10A11; clone No. 10A11) VH: EVQLVESGGRLVQPKGSLKLSCAASGFAFNTYALYWIRQAPGKGLEWVARIRSKSNNYATYYADSVKDRFTISRDDSQSMLYLQMNNLKTEDTAMYYCVRARFYYSDYGYAMDYWGQGTSVTVSS VL: DIVMTQAAPSVPVTPGESVSISCRSSKSLLHSNGNTYLYWFLQRPGQSPQLLIYRMSNLASGVPDRFSGSGSGTAFTLRISRVEAEDVGVYYCMQHLEYPLTFGAGTKLELKR | binding result | no binding
2C7 (antibody, V domains shown, mouse hybridoma antibody) VH: QVQLKQSGPSLVQPSQSLSITCTVSGFSLTAYGVHWIRQSPGKGQEWLGVIWRGGSTDYNAAFMSRLTITKDNSKSQVFFKMNSLQADDTAIYYCAKKGGSYAMDYWGQGTSVTVSS VL: DVVLTQTPLSLPVSLGGQASISCRSSQSLVHSNGNTYLHWYLQKPGQSPKLLIYKVSNRFSGVPDRFSGSGSGTDFTLKISRVEAEDLGVYFCSQSTQVPLTFGAGTKLELKR | binding result | no binding
